Can you tell me logD at 4 h for the items I'm about to list?
experiment: n-octanol/aqueous buffer solution partition coefficient, log P of the compound at pH 6.8 after 4 hrs by HPLC method; format: physicochemical
Give bare numbers.

Consider the following illustrative entries.
CC1(C)CC[C@]2(C(=O)N3CCC[C@H]3C(=O)O)CC[C@]3(C)C(=CC[C@@H]4[C@@]5(C)Cc6nccnc6[C@@](C)(CO)[C@@H]5CC[C@]43C)[C@@H]2C1: 0.38
COC(=O)CCC(=O)NOC(=O)[C@]12CCC(C)(C)C[C@H]1C1=CC[C@@H]3[C@@]4(C)Cc5nccnc5[C@@](C)(CO)[C@@H]4CC[C@@]3(C)[C@]1(C)CC2: -1.24

Below are 2 compounds. Give each one its logD at 4 h.
1. CC1(C)CC[C@]2(C(=O)ONC(=O)CCC(=O)O)CC[C@]3(C)C(=CC[C@@H]4[C@@]5(C)Cc6nccnc6[C@@](C)(CO)[C@@H]5CC[C@]43C)[C@@H]2C1
2. CC1(C)CC[C@]2(C(=O)On3nnc4ccc(Cl)cc43)CC[C@]3(C)C(C(=O)C[C@@H]4[C@@]5(C)CCC(=O)[C@@](C)(CO)[C@@H]5CC[C@]43C)[C@@H]2C1 (some centres undefined)

A:
1. -0.78
2. 0.1

* * *

I'd appreciate it if you could supply viability at 72 h, 5 µM values for the items below.
assay: Cytotoxicity against human KBV cells assessed as cell survival at 5 uM after 72 hrs by MTT assay relative to control; assay type: cell-based; conditions: read-out: Survival
Numbers only, in %.

Below: 8 compounds and their reported viability at 72 h, 5 µM.
CC(C)[C@H](NC(=O)[C@]12CCC(C)(C)C[C@H]1C1=CC[C@@H]3[C@@]4(C)Cc5nccnc5[C@@](C)(CO)[C@@H]4CC[C@@]3(C)[C@]1(C)CC2)C(=O)O: 83
CC1(C)CC[C@]2(C(=O)On3nnc4ccc(Cl)cc43)CC[C@]3(C)C(=CC[C@@H]4[C@@]5(C)CC[C@H](O)[C@@](C)(CO)[C@@H]5CC[C@]43C)[C@@H]2C1: 97
CC1(C)CC[C@]2(C(=O)O)CC[C@]3(C)C(=CC[C@@H]4[C@@]5(C)Cc6nccnc6[C@@](C)(COC(=O)C6CCCCC6C(=O)O)[C@@H]5CC[C@]43C)[C@@H]2C1 (stereo partly drawn): 95
CC1(C)CC[C@]2(C(=O)OCCOC(=O)[C@]34CCC(C)(C)C[C@H]3C3=CC[C@@H]5[C@@]6(C)CC[C@H](O)[C@@](C)(CO)[C@@H]6CC[C@@]5(C)[C@]3(C)CC4)CC[C@]3(C)C(=CC[C@@H]4[C@@]5(C)CC[C@H](O)[C@@](C)(CO)[C@@H]5CC[C@]43C)[C@@H]2C1: 136
COC(=O)CCC(=O)NOC(=O)[C@]12CCC(C)(C)C[C@H]1C1=CC[C@@H]3[C@@]4(C)Cc5nccnc5[C@@](C)(CO)[C@@H]4CC[C@@]3(C)[C@]1(C)CC2: 86
CSCC[C@H](NC(=O)[C@]12CCC(C)(C)C[C@H]1C1=CC[C@@H]3[C@@]4(C)Cc5nccnc5[C@@](C)(CO)[C@@H]4CC[C@@]3(C)[C@]1(C)CC2)C(=O)O: 94
CC1(C)CC[C@]2(C(=O)On3nnc4ccc(Cl)cc43)CC[C@]3(C)C(C(=O)C[C@@H]4[C@@]5(C)CCC(=O)[C@@](C)(CO)[C@@H]5CC[C@]43C)[C@@H]2C1 (stereo partly drawn): 98
CC1(C)CC[C@]2(C(=O)O)CC[C@]3(C)C(=CC[C@@H]4[C@@]5(C)Cc6nccnc6[C@@](C)(COC(=O)CCC(=O)O)[C@@H]5CC[C@]43C)[C@@H]2C1: 96

Batch lookup, viability at 72 h, 5 µM per entry.
1. CC1(C)CC[C@]2(C(=O)OCCCCCOC(=O)[C@]34CCC(C)(C)C[C@H]3C3=CC[C@@H]5[C@@]6(C)CC[C@H](O)[C@@](C)(CO)[C@@H]6CC[C@@]5(C)[C@]3(C)CC4)CC[C@]3(C)C(=CC[C@@H]4[C@@]5(C)CC[C@H](O)[C@@](C)(CO)[C@@H]5CC[C@]43C)[C@@H]2C1
2. CC1(C)CC[C@]2(C(=O)OCCCCOC(=O)[C@]34CCC(C)(C)C[C@H]3C3=CC[C@@H]5[C@@]6(C)CC[C@H](O)[C@@](C)(CO)[C@@H]6CC[C@@]5(C)[C@]3(C)CC4)CC[C@]3(C)C(=CC[C@@H]4[C@@]5(C)CC[C@H](O)[C@@](C)(CO)[C@@H]5CC[C@]43C)[C@@H]2C1
3. CC1(C)CC[C@]2(C(=O)N[C@@H](Cc3ccc(O)cc3)C(=O)O)CC[C@]3(C)C(=CC[C@@H]4[C@@]5(C)Cc6nccnc6[C@@](C)(CO)[C@@H]5CC[C@]43C)[C@@H]2C1
4. CC1(C)CC[C@]2(C(=O)N[C@@H](CCC(=O)O)C(=O)O)CC[C@]3(C)C(=CC[C@@H]4[C@@]5(C)Cc6nccnc6[C@@](C)(CO)[C@@H]5CC[C@]43C)[C@@H]2C1
5. CC1(C)CC[C@]2(C(=O)N[C@@H](CO)C(=O)O)CC[C@]3(C)C(=CC[C@@H]4[C@@]5(C)Cc6nccnc6[C@@](C)(CO)[C@@H]5CC[C@]43C)[C@@H]2C1
6. CC1(C)CC[C@]2(C(=O)O)CC[C@]3(C)C(=CC[C@@H]4[C@@]5(C)Cc6nccnc6[C@@](C)(CO)[C@@H]5CC[C@]43C)[C@@H]2C1
7. CC1(C)CC[C@]2(C(=O)N[C@@H](CC(=O)O)C(=O)O)CC[C@]3(C)C(=CC[C@@H]4[C@@]5(C)Cc6nccnc6[C@@](C)(CO)[C@@H]5CC[C@]43C)[C@@H]2C1

A:
1: 123; 2: 92; 3: 76; 4: 91; 5: 102; 6: 89; 7: 90

Field: viability at 72 h, 5 µM. Fill in for each record below.
1. CC1(C)CC[C@]2(C(=O)OCCN)CC[C@]3(C)C(=CC[C@@H]4[C@@]5(C)Cc6nccnc6[C@@](C)(CO)[C@@H]5CC[C@]43C)[C@@H]2C1
2. C[C@H](NC(=O)[C@]12CCC(C)(C)C[C@H]1C1=CC[C@@H]3[C@@]4(C)Cc5nccnc5[C@@](C)(CO)[C@@H]4CC[C@@]3(C)[C@]1(C)CC2)C(=O)O
3. CC1(C)CC[C@]2(C(=O)O)CC[C@]3(C)C(=CC[C@@H]4[C@@]5(C)Cc6nccnc6[C@@](C)(COC(=O)c6ccccc6C(=O)O)[C@@H]5CC[C@]43C)[C@@H]2C1

A:
1: 116; 2: 98; 3: 116
